system: UACC-62 melanoma; test: NCI tumour cell line growth inhibition, 48 h; in the data active = GI50 below about 0.43 µM; inactive = the rest
Just give me one of these, please: active, inactive

COc1cc2c(cc1OCc1ccccc1)N=C[C@@H]1C[C@@H](F)CN1C2=O    active
C=CC(=O)N1CC2(CC(n3nc(-c4ccc(Oc5ccccc5)cc4)c4c(N)ncnc43)C2)C1    inactive
CCCCCCCCn1ccc2cc(NC(=O)Cn3cc(CN4CCC(C)CC4)nn3)ccc21    inactive
O=c1[nH]cc(CO)c(=O)[nH]1    inactive
[CH3][Sn]([CH3])([CH3])[O]C(=O)C(O)c1ccccc1 (stereo not drawn)    inactive
Cc1ccc(NC(C(=O)c2ccccc2)c2ccccc2)cc1 (stereo not drawn)    inactive
O=[N+]([O-])c1ccc(Oc2cccc(C(F)(F)F)c2)c([N+](=O)[O-])c1    inactive

Now look at this one.
*Q* What is the recorded call for this compound in the test? COC(=O)c1c2c(c(C)[n+]([O-])c1C)C(=O)C=C(NCc1ccc(Br)cc1)C2=O
*A* active

* * *

system: HCT-15 colon; experiment: NCI tumour cell line growth inhibition, 48 h
QUANTITY_NAME: TGI

Examples with their reported TGI follow.
Cc1ccc(-c2c3c(N)nc(-c4ccncc4)nc3nc3c2c(C)nn3-c2ccccc2)cc1    > 37.5 µM
OC1=CN=C(C2CC2)Oc2ccccc21    > 100 µM
O=C(Nc1ccccc1)c1cc2c(cc1Cl)SC(NNCCO)=NS2(=O)=O    > 100 µM
COc1ccc(C2=NNC(c3cc(Cc4ccc(O)c(C5CC(c6ccc(OC)cc6)=NN5)c4)ccc3O)C2)cc1 (stereo unspecified)    > 100 µM
CCOC(=O)c1ncn2c1[nH]c(=O)c1ccccc12    > 100 µM
CC[C@@]1(O)C(=O)OCc2c1cc1n(c2=O)Cc2cc3c(Cl)c4c(cc3nc2-1)OCO4    > 100 µM

Please look at the items below and tell me TGI for each one, in order.
1. N#Cc1c(N)nc2c(N=Nc3ccccc3)c(N)nn2c1Nc1ccccc1
2. Cc1cc2oc(=O)c(Cl)c(Cl)c2c(C)c1Cl
3. COc1cc(-c2ccc(Nc3ccccc3C(=O)O)c(OC)c2)ccc1Nc1ccccc1C(=O)O

*A*
1. > 100 µM
2. 14.3 µM
3. 51.6 µM

// each compound listed below needs its TGI
1. O=CNNC(=O)CSc1nc2ccc(I)cc2c(=O)n1Cc1ccccc1
2. Cc1ccc(NC(C(=O)c2ccccc2)c2ccccc2)cc1 (stereo unspecified)

*A*
1: > 100 µM; 2: > 100 µM

* * *

system: SNB-75 CNS; assay: NCI tumour cell line growth inhibition, 48 h
Consider the following compounds; for each one, report its TGI.

CC(C)(C)C(=O)CC(=O)C(F)(F)C(F)(F)C(F)(F)F.CC(C)(C)C(=O)CC(=O)C(F)(F)C(F)(F)C(F)(F)F.CC(C)(C)C(=O)CC(=O)C(F)(F)C(F)(F)C(F)(F)F.[Er]    > 100 µM
CC(=O)c1c2c(cc3c1CC1(C3)Cc3ccc4c(c3C1=O)CCC4)CCC2 (centres undefined)    > 100 µM
CC(N)CN.CC(N)CN.[Cl-].[O]=[Os+2]=[O] (centres undefined)    > 100 µM

Now look at this entry.
*Q* Given the entry CC[C@@]1(OC(=O)C(N)CCC(=O)O)C(=O)OCc2c1cc1n(c2=O)Cc2cc3ccccc3nc2-1 (some centres undefined) , what TGI was observed with SNB-75 CNS?
*A* 1.35 µM
